Measured TGI, listed per entry for reference.
Tested on: SF-268 CNS
assay_method_text: NCI tumour cell line growth inhibition, 48 h
metric: TGI

1. Fc1cccc(C=NC23CC4CC(CC(C4)C2)C3)c1    > 100 µM
2. O=C1c2cccnc2-c2nc(-c3ccccc3)cc3c2c1nc1ccccc13    18.8 µM
3. O=C(CC(C(=O)c1ccsc1)c1cccs1)c1ccsc1 (stereo not given)    > 100 µM
4. C[C@@H](Oc1cc(-n2cnc3ccc(OCC4CCN(C)CC4)cc32)sc1C(N)=O)c1ccccc1C(F)(F)F    3.86 µM
5. COC(=O)/C=C1/OC(c2ccccc2)=CC1=O    44.7 µM

Cited source for all entries: PubChem BioAssay (NCI)
